Target: mutant G2019S LRRK2 (Homo sapiens (Human), UniProt Q5S007, G2019S)
Sequence (Q5S007 970-2527 G2019S): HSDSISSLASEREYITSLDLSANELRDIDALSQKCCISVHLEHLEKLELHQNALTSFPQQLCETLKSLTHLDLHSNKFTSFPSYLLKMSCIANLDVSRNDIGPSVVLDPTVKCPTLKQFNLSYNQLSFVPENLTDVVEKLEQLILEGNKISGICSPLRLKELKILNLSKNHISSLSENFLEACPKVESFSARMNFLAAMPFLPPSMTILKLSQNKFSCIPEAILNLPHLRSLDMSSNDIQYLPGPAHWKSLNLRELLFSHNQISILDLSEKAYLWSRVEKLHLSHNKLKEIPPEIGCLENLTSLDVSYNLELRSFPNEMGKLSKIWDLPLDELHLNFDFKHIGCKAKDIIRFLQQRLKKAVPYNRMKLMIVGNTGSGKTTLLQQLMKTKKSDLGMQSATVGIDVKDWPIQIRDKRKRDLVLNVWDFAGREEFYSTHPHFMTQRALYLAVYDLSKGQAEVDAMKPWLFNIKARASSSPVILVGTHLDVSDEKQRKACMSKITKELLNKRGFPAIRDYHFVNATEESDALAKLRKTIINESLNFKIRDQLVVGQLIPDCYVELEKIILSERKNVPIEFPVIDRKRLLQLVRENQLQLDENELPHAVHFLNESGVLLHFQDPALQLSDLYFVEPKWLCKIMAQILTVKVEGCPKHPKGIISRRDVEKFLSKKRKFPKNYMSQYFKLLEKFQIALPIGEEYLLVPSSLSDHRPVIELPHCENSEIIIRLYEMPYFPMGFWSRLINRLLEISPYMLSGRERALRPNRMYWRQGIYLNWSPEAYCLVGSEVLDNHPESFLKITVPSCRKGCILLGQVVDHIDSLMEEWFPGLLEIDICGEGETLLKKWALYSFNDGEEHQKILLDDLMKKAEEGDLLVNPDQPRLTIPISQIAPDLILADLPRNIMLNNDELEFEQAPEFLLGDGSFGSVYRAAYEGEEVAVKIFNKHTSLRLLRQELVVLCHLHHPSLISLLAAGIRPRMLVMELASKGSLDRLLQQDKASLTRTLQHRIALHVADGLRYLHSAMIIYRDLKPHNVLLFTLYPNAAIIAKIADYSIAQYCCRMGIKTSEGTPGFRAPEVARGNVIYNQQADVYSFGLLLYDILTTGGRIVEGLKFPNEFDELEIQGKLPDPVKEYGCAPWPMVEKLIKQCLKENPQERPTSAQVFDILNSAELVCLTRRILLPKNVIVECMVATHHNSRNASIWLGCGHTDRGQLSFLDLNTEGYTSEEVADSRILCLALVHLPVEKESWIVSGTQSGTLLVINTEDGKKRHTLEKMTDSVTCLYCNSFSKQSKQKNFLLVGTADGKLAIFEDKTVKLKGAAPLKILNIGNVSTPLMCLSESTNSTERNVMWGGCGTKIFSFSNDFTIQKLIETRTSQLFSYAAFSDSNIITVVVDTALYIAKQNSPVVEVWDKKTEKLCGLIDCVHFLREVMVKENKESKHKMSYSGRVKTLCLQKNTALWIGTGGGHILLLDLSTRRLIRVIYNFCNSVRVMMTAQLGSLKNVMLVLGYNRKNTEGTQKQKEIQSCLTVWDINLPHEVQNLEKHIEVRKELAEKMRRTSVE
Assay: LRRK2 Lantha Screen kinase assay, mutant enzyme
Type: biochemical
Conditions: geometric mean of 2-5 determinations unless otherwise indicated (a: >=6 determinations; b: single determination)
Parameter: IC50 (nM)

Solved cases (2 shown):
C[C@@H]1CN(c2ncnc3[nH]cc(-c4cnn(C)c4)c23)CCO1 [Example 122] :: 31
Cn1cc(-c2c[nH]c3ncnc(N4CCCC(F)C4)c23)cn1 (stereo not drawn) [Example 123] :: 27

(A) C[C@H]1CCCN(c2ncnc3[nH]cc(-c4cnc5[nH]ccc5c4)c23)C1 [Example 53]
(B) c1cnn2c(-c3c[nH]c4ncnc(N5CCOCC5)c34)cnc2c1 [Example 212]
(C) Cc1nc(CC2CN(c3ncnc4[nH]cc(-c5cccc(C#N)c5)c34)CCO2)no1 (stereo not drawn) [Example 145]
[ask] Reorder the items by IC50, least to greatest. # output: labels, in the requested order
[reply] B, A, C
(B: 12.3 nM, A: 69 nM, C: 155 nM)

###

Biological target: mutant G2019S LRRK2 (Homo sapiens (Human), UniProt Q5S007, G2019S)
Assay: LRRK2 Lantha Screen kinase assay, mutant enzyme
Conditions: geometric mean of 2-5 determinations unless otherwise indicated (a: >=6 determinations; b: single determination)
pIC50: −log10 of the molar value.
Parameter: pIC50

Solved cases (3 shown):
Cc1cc(C#N)cc(-c2c[nH]c3ncnc(N4CCOCC4)c23)c1 :: 7.19
C[C@H]1CCCN(c2ncnc3[nH]cc(-c4cccc(CO)c4)c23)C1 :: 7.74
N#Cc1cccc(-c2c[nH]c3ncnc(N4CCC(=O)CC4)c23)c1 :: 6.65

(I) c1cnc2c(-c3c[nH]c4ncnc(N5CCOCC5)c34)cnn2c1
(II) COCC1CN(c2ncnc3[nH]cc(-c4cccc(C#N)c4)c23)CCO1 (single isomer, unassigned) [Example 197]
[ask] # argmax over pIC50 for candidates I and II State the label of the item chosen.
[reply] I
(I: 6.92, II: 6.61)

(P) N#Cc1ccc(-c2c[nH]c3ncnc(N4CCOCC4)c23)s1
(Q) COc1ccc(F)cc1-c1c[nH]c2ncnc(N3CCC(F)CC3)c12
(R) N#Cc1cccc(-c2c[nH]c3ncnc(N4CCOC(c5cc[nH]n5)C4)c23)c1 (stereo not drawn) [Example 36]
[ask] Reorder the items by pIC50, least to greatest. # output: labels, in the requested order
[reply] R, P, Q
(R: 6.62, P: 6.93, Q: 7.54)

###

Molecular target: GST-tagged truncated LRRK2 (Homo sapiens (Human))
Sequence (Q5S007 970-2527): as the sequence (Q5S007 970-2527 G2019S) above, with S1050G counted along it
Experiment: LRRK2 Lantha Screen kinase assay
Settings: geometric mean of 2-5 determinations unless otherwise indicated (a: >=6 determinations; b: single determination); read-out: LRRK2 WT IC50
pIC50: −log10 of the molar value.
Parameter: pIC50

(a) C[C@H]1CCCN(c2ncnc3[nH]cc(-c4ccc5[nH]ncc5c4)c23)C1
(b) Cc1cncc(-c2c[nH]c3ncnc(N4CCC[C@H](C)C4)c23)c1
[ask] # argmax over pIC50 for candidates a and b State the label of the item chosen.
[reply] b
(b: 7.82, a: 7.17)

(a) C[C@H]1CCCN(c2ncnc3[nH]cc(-c4cccc(C(N)=O)c4)c23)C1
(b) N#Cc1ccc(-c2c[nH]c3ncnc(N4CCOCC4)c23)s1
[ask] # argmax over pIC50 for candidates a and b State the label of the item chosen.
[reply] b
